The measurements presented in this section are drawn from ChEMBL document CHEMBL1126094.

Species on record: Rattus norvegicus
procedure.details: Binding affinity against NE uptake site, using [3H]nisoxetine as radioligand in rat striatal membrane
Format: functional, Striatum
pKi: −log10 of the molar value.

smiles | pKi
CNCC[C@H](Oc1ccc(I)cc1)c1ccccc1 | 6.61
CNCC[C@H](Oc1cccc(I)c1)c1ccccc1 | 8.74
CNCC[C@@H](Oc1ccc(I)c(C)c1)c1ccccc1 | 6.89
CNCC[C@H](Oc1ccccc1I)c1ccccc1 | 8.03
CNCC[C@@H](Oc1ccc(I)cc1)c1ccccc1 | 8.49
CNCC[C@@H](Oc1ccc(C)cc1I)c1ccccc1 | 8.47
CNCC[C@@H](Oc1ccccc1I)c1ccccc1 | 9.62
CNCC[C@H](Oc1ccc(I)cc1C)c1ccccc1 | 5.94
CNCC[C@@H](Oc1cccc(I)c1)c1ccccc1 | 8.85
CNCC[C@@H](Oc1ccc(I)cc1C)c1ccccc1 | 7.16
CNCC[C@H](Oc1ccc(C)cc1I)c1ccccc1 | 6.81
CNCC[C@H](Oc1ccc(I)c(C)c1)c1ccccc1 | 6.45

---

pKi reference
Organism: Rattus norvegicus
procedure.details: Binding affinity against DA uptake site, using [125I]beta-CIT as radioligand in rat striatal membrane
Assay type: functional, Striatum
pKi: −log10 of the molar value.

smiles | pKi
CNCC[C@@H](Oc1cccc(I)c1)c1ccccc1 | 6.31
CNCC[C@H](Oc1cccc(I)c1)c1ccccc1 | 6.68
CNCC[C@H](Oc1ccc(I)cc1C)c1ccccc1 | 6.20
CNCC[C@@H](Oc1ccc(C)cc1I)c1ccccc1 | 4.95
CNCC[C@H](Oc1ccc(C)cc1I)c1ccccc1 | 6.39
CNCC[C@H](Oc1ccc(I)c(C)c1)c1ccccc1 | 6.70
CNCC[C@@H](Oc1ccc(I)cc1C)c1ccccc1 | 6.07
CNCC[C@@H](Oc1ccc(I)c(C)c1)c1ccccc1 | 6.66

---

Species on record: Rattus norvegicus
procedure.details: Binding affinity against 5-HT uptake site, using [3H]citalopram as radioligand in rat cortical membrane
Assay type: functional
pKi: −log10 of the molar value. Where a name gives a salt, the structure may show the parent alone.
pKi reference
measure: pKi

molecule | observed.measurement
CNCC[C@@H](Oc1ccccc1C)c1ccccc1 [ATOMOXETINE HYDROCHLORIDE] | 7.60
CNCC[C@@H](Oc1ccc(C)cc1I)c1ccccc1 | 8.29
CNCC[C@H](Oc1ccc(C)cc1I)c1ccccc1 | 8.24
CNCC[C@@H](Oc1cccc(I)c1)c1ccccc1 | 7.84
CNCC[C@@H](Oc1ccc(I)cc1C)c1ccccc1 | 9.19
CNCC[C@@H](Oc1ccc(I)c(C)c1)c1ccccc1 | 9.16
CNCC[C@H](Oc1ccc(I)c(C)c1)c1ccccc1 | 9.52
CNCC[C@@H](Oc1ccccc1I)c1ccccc1 | 7.77
CNCC[C@@H](Oc1ccc(I)cc1)c1ccccc1 | 8.90
CNCC[C@H](Oc1cccc(I)c1)c1ccccc1 | 8.40
CNCC[C@H](Oc1ccc(I)cc1)c1ccccc1 | 9.10
CNCC[C@H](Oc1ccc(I)cc1C)c1ccccc1 | 7.86
CNCC[C@H](Oc1ccccc1I)c1ccccc1 | 7.88
